assayText: NCI Yeast Anticancer Drug Screen. Data for the rad50 strain (AID 155);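 further: 0% = growth of vehicle-only cultures of the same strain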
conditionLabel: S. cerevisiae rad50 strain growth inhibition; at 5.0 µM (retest, dose inferred, filed as 0.5); stronger effect = higher value
Protocol: Growth inhibition of yeast strains with defined genetic alterations is measured as a screen for potential anti-cancer activity. Selected strains with alterations in DNA damage repair or cell cycle control were exposed to compounds and growth inhibition was measured relative to vehicle treated controls. The strain used in this assay is rad50
Compounds without any hit were thinned out: in the full panel of roughly 79,000, 15% have a hit.
Answer each item with its documented growth inhibition.
Numbers only, in %.

molecule=CCN(CC)CCNc1ccc(C)c2sc3cccc(O)c3c(=O)c12 datavalue=86
molecule=CCc1ccc2ccc3ccc(CC)nc3c2n1 datavalue=74
molecule=O=C(OCc1ccccc1)N(CCCCN(CCCNCc1ccccc1)C(=O)OCc1ccccc1)CCCNCc1ccccc1 datavalue=11
molecule=COc1cc(NCCCCCNC2CCCCC2)c2ncccc2c1 datavalue=2
molecule=CC(C)SC(=S)Nc1cc(C(F)(F)F)ccc1Cl datavalue=-2
molecule=O=C1C=CC(=Nc2ccc(O)c3ncccc23)c2cccnc21 datavalue=34

Batch: growth inhibition for all items listed.
1. N#CN=[N+]([O-])c1ccc(C(=O)O)cc1
2. O=C1OC2(CCCC2)OC1c1ccccc1 (centres undefined)
3. CN(C)C=Nc1ccc2nonc2c1
4. C/C(=N\NC(=S)Nc1ccc(S(N)(=O)=O)cc1)c1ccccn1

[80, 2, 15, 33]

Provide each entry's growth inhibition from the list below.
1. O=C(O)c1cc2oc(-c3ccccc3)cc2[nH]1
2. O=S(=O)(Nc1ccccc1)c1ccccc1CC(O)(c1ccccc1)c1ccccc1
3. N#Cc1c(-c2ccc(Cl)c(Cl)c2)c(-c2ccc(Cl)c(Cl)c2)nn(CC(=O)O)c1=O
4. O=C1C(Sc2ccc3ccccc3c2)=C(Sc2ccc3ccccc3c2)C(=O)c2ccccc21
5. c1ccc(CCCCc2ccncc2)cc1
6. Fc1ccccc1CN1COc2c(cc(Cl)c3cccnc23)C1

1: -11; 2: 46; 3: -2; 4: 34; 5: 1; 6: 11
